# Tested on: HPPD polypeptides
# assayText: coupled HPPD activity assay: turnover and residual turnover in crude extracts
# Assay type: biochemical, Pseudomonas fluorescens
# assaySetup: presence of 100 μM Cmpd. 1; high substrate concentration; changes in absorbance (OD) at 320 nm
measurementName: Residual turnover
Give only the figure.

Q: Output measured Residual turnover for this item: 71 (protein, mutant HPPD polypeptide) MADLYENPMGLMGFEFIEFASPTPGTLEPIFEIMGFTKVATHRSKNVHLYRQGEINLILNNEPNSIASYFAAEHGPSVCGMAFRVKDSQKAYNRALELGAQPIHIDTGPMELNLPAIKGIGGAPLYLIDRFGEGSSIYDIDFVYLEGVERNPVGAGLKVIDHLTHNVYRGRMVYWANFYEKLFNFREARYFDIKGEYTGLTSKAMSAPDGMIRILLNEESSKGAGQIEEFLMQFNGEGIQHVAFLTDDLVKTWDALKKIGMRFMTAPPDTYYEMLEGRLPDHGEPVDQLQARGILLDGSSVEGDKRLLLQIFSETLMGPVFFEFIQRKGDDGFGPFNFKELFESIERDQVRRGVLTAD
Result: 0.022
